Experiment: Hepatic clearance in vitro CLint, mouse liver microsomes
Assay type: in vitro ADME
experimentalEndpoint: microsomal CLint

[[record]]
givensmiles = "COCCOc1ccc(N2CCN(CCN(C)c3cc4nc(-c5ncco5)nn4c(N)n3)CC2)cc1"
experimentalendpoint = "microsomal CLint"
recordedresult = "29 µL/min/mg"


###

Test: Plasma pharmacokinetic parameters following intravenous (IV) or oral (PO) administration in rats
Assay type: in vivo, Sprague-Dawley rats
Conditions: male, Sprague-Dawley, rat, plasma, po, 2.5 mg/kg, PO 2.5 mg/kg via gavage, injectable water
Examples of compounds with documented MRT last follow.
experimentalEndpoint: MRT last (h)

[[record]]
givensmiles = "COCCOc1cnc(N2CCN(CCN(C)c3cc4nc(-c5ncco5)nn4c(N)n3)CC2)c(Cl)c1"
experimentalendpoint = "MRT last"
unitdescriptor = "h"
recordedresult = 2.43

[[record]]
givensmiles = "COCCOc1cnc(N2CCN(CCN(C)c3cc4nc(-c5ncco5)nn4c(N)n3)CC2)c(C(F)(F)F)c1"
experimentalendpoint = "MRT last"
unitdescriptor = "h"
recordedresult = 2.65

[[record]]
givensmiles = "COCCOc1cnc(N2CCN(CCN(C)c3cc4nc(-c5ncco5)nn4c(N)n3)CC2)c(F)c1"
experimentalendpoint = "MRT last"
unitdescriptor = "h"
recordedresult = 2.55

